target of assay: human androgen receptor (AR) (Homo sapiens, UniProt P10275)
Construct: expressed in transfected cells; host or cells: mouse myoblast C2C12 cells, transiently co-transfected with FuGENE
Sequence (P10275 whole entry): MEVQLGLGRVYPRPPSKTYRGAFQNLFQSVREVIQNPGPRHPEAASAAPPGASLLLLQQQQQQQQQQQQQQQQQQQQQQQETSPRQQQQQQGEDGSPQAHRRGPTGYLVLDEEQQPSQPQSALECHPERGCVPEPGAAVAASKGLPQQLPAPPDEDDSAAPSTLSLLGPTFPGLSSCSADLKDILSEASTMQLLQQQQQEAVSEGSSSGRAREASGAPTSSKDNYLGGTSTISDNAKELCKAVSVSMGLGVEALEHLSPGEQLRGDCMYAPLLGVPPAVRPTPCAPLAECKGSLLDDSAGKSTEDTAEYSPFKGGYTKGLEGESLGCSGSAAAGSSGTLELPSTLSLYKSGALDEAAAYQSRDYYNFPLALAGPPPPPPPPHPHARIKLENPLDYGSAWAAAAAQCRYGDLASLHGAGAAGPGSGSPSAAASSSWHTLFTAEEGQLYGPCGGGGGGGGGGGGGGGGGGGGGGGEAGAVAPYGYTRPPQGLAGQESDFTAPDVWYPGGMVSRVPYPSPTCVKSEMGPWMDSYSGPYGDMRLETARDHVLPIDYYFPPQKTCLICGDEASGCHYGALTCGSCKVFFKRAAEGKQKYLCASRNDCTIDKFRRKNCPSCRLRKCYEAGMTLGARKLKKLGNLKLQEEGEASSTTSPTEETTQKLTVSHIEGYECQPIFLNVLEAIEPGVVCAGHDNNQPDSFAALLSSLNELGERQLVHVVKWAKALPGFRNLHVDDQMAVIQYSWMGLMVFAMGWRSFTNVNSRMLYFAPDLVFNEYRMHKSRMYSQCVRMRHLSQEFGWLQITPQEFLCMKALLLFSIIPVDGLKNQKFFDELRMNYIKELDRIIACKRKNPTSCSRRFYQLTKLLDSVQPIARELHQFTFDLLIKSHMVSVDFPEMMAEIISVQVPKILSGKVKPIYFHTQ
method notes: C2C12 AR/ARE reporter assay
Format: cell-based
conditions used: C2C12, read-out: C2C12 % Efficacy, versus maximum stimulation obtained with 10 nM methyltrienolone; average
measured parameter: Emax (%)
Give your result in % as a bare value.

compound: Cc1nnc(C2CCCN2c2ccc(C#N)c(Cl)c2C)s1 (centres unmarked)
measured parameter: Emax
value units: %
number: 74.3
--
compound: N#Cc1ccc(N2CCCC2c2ccc3c(c2)OCO3)cc1C(F)(F)F (centres unmarked)
measured parameter: Emax
value units: %
number: -12.4
--
compound: Cc1nnc(C2CCCN2c2ccc(C#N)c(Cl)c2C)o1 (centres unmarked)
measured parameter: Emax
value units: %
number: 80.5
--
compound: Cc1c(N2CCCC2c2ccccn2)ccc(C#N)c1Cl (centres unmarked)
measured parameter: Emax
value units: %
number: 79.8

For the next question, use this compound.
Enquiry: # input compound: Cc1c(N2CC(C)(C)CC2c2ccccc2)ccc(C#N)c1Cl (centres unmarked) ; wanted: its Emax
Return: 84.9
